Attribution: patent US20050042701A1

Assay: 1st phase clinical test: pharmacokinetics of petasin in serum after single oral administration of tablets containing butterbur extract (open crossover; enzyme immunoassay)
Type: in vivo, human (clinically healthy men)
Conditions: male, human, serum; 2 tablets, single oral; mean ± SD
Protocol: Petasin ovalbumin is adsorptively bound to polystyrene microtitration plates in a concentration of […] in 0.1 M carbonate buffer, pH=9.5, (100 μl/well) for 16 hours at 4° C. and thereupon sucked off. After washing it two times with 300 μl/well washing buffer (PBS, 0.1% Tween 20) it is blocked for 2 hours at room temperature with 150 μl/well blocking solution (0.6% gelatine, 0.02% […] in PBS) and subsequently washed three times with washing buffer. […]
reportedProperty: half-life (h)
Kindly answer with a numeric value in h, unit omitted.

Q: What value of half-life has been reported for the following compound? C=C(C)C1CC2(C)C(=CC1=O)CCC(OC(=O)/C(C)=C\C)C2C (stereo not shown) [petasin]
A: 7.16

###

assay: 1st phase clinical test: pharmacokinetics of petasin in serum after single oral administration of tablets containing butterbur extract (open crossover; enzyme immunoassay); format: in vivo, human (clinically healthy men); conditions: male, human, serum, oral, 4 tablets, after administering 4 tablets; 3 h p.a.; read-out: Petasin serum concentration Median
reportedProperty: concentration at 3 h
State the result as a value with its unit after it.

Q: What value of concentration at 3 h has been reported for the following compound? C=C(C)C1CC2(C)C(=CC1=O)CCC(OC(=O)/C(C)=C\C)C2C (stereo not shown)
A: 14.6 ng/mL

###

assay: 1st phase clinical test: pharmacokinetics of petasin in serum after single oral administration of tablets containing butterbur extract (open crossover; enzyme immunoassay); assay type: in vivo, human (clinically healthy men); conditions: male, human, serum, oral, 2 tablets, after administering 2 tablets; 0.25 h p.a.; read-out: Petasin serum concentration Min.
reportedProperty: concentration at 0.25 h (ng/mL)
Kindly answer with a numeric value in ng/mL, unit omitted.

Q: What value of concentration at 0.25 h has been reported for the following compound? C=C(C)C1CC2(C)C(=CC1=O)CCC(OC(=O)/C(C)=C\C)C2C (stereo not shown) [petasin]
A: 1.1

###

experiment: 1st phase clinical test: pharmacokinetics of petasin in serum after single oral administration of tablets containing butterbur extract (open crossover; enzyme immunoassay); type: in vivo, human (clinically healthy men); conditions: male, human, serum, oral, 4 tablets, after administering 4 tablets; 24 h p.a.; read-out: Petasin serum concentration Mean
reportedProperty: concentration at 24 h (ng/mL)
Kindly answer with a numeric value in ng/mL, unit omitted.

Q: What value of concentration at 24 h has been reported for the following molecule? C=C(C)C1CC2(C)C(=CC1=O)CCC(OC(=O)/C(C)=C\C)C2C (stereo not shown)
A: 1.3

###

experiment: 1st phase clinical test: pharmacokinetics of petasin in serum after single oral administration of tablets containing butterbur extract (open crossover; enzyme immunoassay); assay type: in vivo, human (clinically healthy men); conditions: male, human, serum, oral, 4 tablets, after administering 4 tablets; 1.5 h p.a.; read-out: Petasin serum concentration Min.
reportedProperty: concentration at 1.5 h

Q: What value of concentration at 1.5 h has been reported for the following compound? C=C(C)C1CC2(C)C(=CC1=O)CCC(OC(=O)/C(C)=C\C)C2C (stereo not shown)
A: 12.2 ng/mL

###

experiment: 1st phase clinical test: pharmacokinetics of petasin in serum after single oral administration of tablets containing butterbur extract (open crossover; enzyme immunoassay); assay type: in vivo, human (clinically healthy men); conditions: male, human, serum, oral, 2 tablets, after administering 2 tablets; 0.25 h p.a.; read-out: Petasin serum concentration Median
reportedProperty: concentration at 0.25 h (ng/mL)
Kindly answer with a numeric value in ng/mL, unit omitted.

Q: What value of concentration at 0.25 h has been reported for the following molecule? C=C(C)C1CC2(C)C(=CC1=O)CCC(OC(=O)/C(C)=C\C)C2C (stereo not shown)
A: 2.2

###

assay: 1st phase clinical test: pharmacokinetics of petasin in serum after single oral administration of tablets containing butterbur extract (open crossover; enzyme immunoassay); format: in vivo, human (clinically healthy men); conditions: male, human, serum; 4 tablets, single oral; mean ± SD
reportedProperty: MRT
State the result as a value with its unit after it.

Q: What value of MRT has been reported for the following compound? C=C(C)C1CC2(C)C(=CC1=O)CCC(OC(=O)/C(C)=C\C)C2C (stereo not shown)
A: 6.74 h

###

experiment: 1st phase clinical test: pharmacokinetics of petasin in serum after single oral administration of tablets containing butterbur extract (open crossover; enzyme immunoassay); assay type: in vivo, human (clinically healthy men); details: male, human, serum, oral, 2 tablets, after administering 2 tablets; 1.17 h p.a.; read-out: Petasin serum concentration Min.
reportedProperty: concentration at 1.17 h
State the result as a value with its unit after it.

Q: What value of concentration at 1.17 h has been reported for the following molecule? C=C(C)C1CC2(C)C(=CC1=O)CCC(OC(=O)/C(C)=C\C)C2C (stereo not shown)
A: 5.6 ng/mL
